Biological target: T1, EsCas13d, nuclease-dead (Eubacterium siraeum, UniProt B0MS50, R295A;H300A;R849A;H854A)
T1 sequence: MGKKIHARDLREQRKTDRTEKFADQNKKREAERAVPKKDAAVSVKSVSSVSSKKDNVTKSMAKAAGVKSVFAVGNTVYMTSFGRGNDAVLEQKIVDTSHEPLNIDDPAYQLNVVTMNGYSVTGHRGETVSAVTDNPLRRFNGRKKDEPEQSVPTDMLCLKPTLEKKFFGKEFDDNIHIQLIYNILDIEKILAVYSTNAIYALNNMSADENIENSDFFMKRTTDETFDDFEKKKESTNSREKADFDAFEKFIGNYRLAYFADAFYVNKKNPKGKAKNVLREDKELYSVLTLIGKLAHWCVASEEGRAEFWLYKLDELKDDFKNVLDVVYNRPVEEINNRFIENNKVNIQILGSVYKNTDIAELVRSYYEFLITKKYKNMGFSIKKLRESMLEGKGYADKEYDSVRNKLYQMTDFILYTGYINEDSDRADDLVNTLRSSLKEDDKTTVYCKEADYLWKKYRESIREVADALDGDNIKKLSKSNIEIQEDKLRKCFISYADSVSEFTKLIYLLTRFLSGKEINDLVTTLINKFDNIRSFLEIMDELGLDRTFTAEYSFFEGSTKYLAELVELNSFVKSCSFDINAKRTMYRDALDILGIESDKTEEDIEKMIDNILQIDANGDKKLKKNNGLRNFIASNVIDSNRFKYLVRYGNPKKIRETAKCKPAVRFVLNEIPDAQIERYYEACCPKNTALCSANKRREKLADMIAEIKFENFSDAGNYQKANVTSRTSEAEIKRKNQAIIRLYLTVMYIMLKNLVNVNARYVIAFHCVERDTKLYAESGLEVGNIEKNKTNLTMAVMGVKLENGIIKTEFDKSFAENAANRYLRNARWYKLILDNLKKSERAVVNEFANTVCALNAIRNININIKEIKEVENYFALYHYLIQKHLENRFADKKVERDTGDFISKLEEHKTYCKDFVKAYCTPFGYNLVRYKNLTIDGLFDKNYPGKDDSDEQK
Experiment: crRNA (strand 1, pre-loaded); Mg2+; 40 mM Tris-HCl pH 7.5, 150 mM NaCl, 6 mM MgCl2, 1 mM DTT, 0.1% Tween-20, 0.2 mg/ml BSA; 25 C; 10 min per concentration, then washed
Settings: tags: His6-TwinStrep-SUMO cleaved; N-terminal SNAP kept (SNAP-Surface 488); label: 3' end held by stalled T7 RNA polymerase
pKd: −log10 of the molar value.
Here the recorded pKd is given for each entry.

binder	pKd
target 2 MT 5'PFS GUU 3'PFS ACC (mixed) RNA 1: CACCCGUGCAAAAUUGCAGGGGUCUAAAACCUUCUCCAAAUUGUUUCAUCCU RNA 2: GGGAAUGGAUCCACAUCUACGAAUUCGUUAGGAUGAAACAAUUUGGAGAAGACCAGAUCGGAAGAGCACACGU	7.74
target 2 MT 5'PFS GUC 3'PFS GAC (mixed) RNA 1: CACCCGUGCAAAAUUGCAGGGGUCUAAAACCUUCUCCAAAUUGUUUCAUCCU RNA 2: GGGAAUGGAUCCACAUCUACGAAUUCGUCAGGAUGAAACAAUUUGGAGAAGGACAGAUCGGAAGAGCACACGU	7.91
target 2 MT 5'PFS AGG 3'PFS CUA (mixed) RNA 1: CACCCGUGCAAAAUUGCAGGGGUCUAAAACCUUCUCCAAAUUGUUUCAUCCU RNA 2: GGGAAUGGAUCCACAUCUACGAAUUCAGGAGGAUGAAACAAUUUGGAGAAGCUAAGAUCGGAAGAGCACACGU	8.17
target 2 MT 5'PFS CUU 3'PFS AUA (mixed) RNA 1: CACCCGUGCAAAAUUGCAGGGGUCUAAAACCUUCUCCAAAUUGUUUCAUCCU RNA 2: GGGAAUGGAUCCACAUCUACGAAUUCCUUAGGAUGAAACAAUUUGGAGAAGAUAAGAUCGGAAGAGCACACGU	8.33
target 1 MT 5'PFS UUG 3'PFS AGU (mixed) RNA 1: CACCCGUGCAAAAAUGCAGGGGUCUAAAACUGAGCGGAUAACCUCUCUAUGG RNA 2: GGGAAUGGAUCCACAUCUACGAAUUCUUGCCAUAGAGAGGUUAUCCGCUCAAGUAGAUCGGAAGAGCACACGU	7.08
target 1 U10G,G12U (mixed) RNA 1: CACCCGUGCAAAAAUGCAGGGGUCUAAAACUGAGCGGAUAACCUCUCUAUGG RNA 2: GGGAAUGGAUCCACAUCUACGAAUUCGUACCAUAGAGAGUUGAUCCGCUCACCGAGAUCGGAAGAGCACACGU	7.70
target 3 insA 3' of 4,insA 3' of 1 (mixed) RNA 1: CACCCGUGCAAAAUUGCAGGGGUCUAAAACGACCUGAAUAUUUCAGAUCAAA RNA 2: GGGAAUGGAUCCACAUCUACGAAUUCGUUUUUGAUCUGAAAUAUUCAGAGUCAUGCAGAUCGGAAGAGCACACGU	7.30
target 3 insC 3' of 9,insG 3' of 6 (mixed) RNA 1: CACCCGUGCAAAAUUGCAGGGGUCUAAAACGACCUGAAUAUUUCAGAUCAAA RNA 2: GGGAAUGGAUCCACAUCUACGAAUUCGUUUUUGAUCUGAAAUACUUCGAGGUCUGCAGAUCGGAAGAGCACACGU	7.05
target 1 MT 5'PFS GUG 3'PFS AAG (mixed) RNA 1: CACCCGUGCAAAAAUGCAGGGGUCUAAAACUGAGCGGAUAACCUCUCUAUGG RNA 2: GGGAAUGGAUCCACAUCUACGAAUUCGUGCCAUAGAGAGGUUAUCCGCUCAAAGAGAUCGGAAGAGCACACGU	7.64
target 1 complement block 3-10 (mixed) RNA 1: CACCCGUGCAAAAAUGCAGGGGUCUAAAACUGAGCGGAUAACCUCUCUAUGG RNA 2: GGGAAUGGAUCCACAUCUACGAAUUCGUACCAUAGAGAGGUAUAGGCGACACCGAGAUCGGAAGAGCACACGU	7.91
target 1 insC 3' of 11,insA 3' of 7 (mixed) RNA 1: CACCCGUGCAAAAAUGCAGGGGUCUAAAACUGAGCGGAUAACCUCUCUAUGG RNA 2: GGGAAUGGAUCCACAUCUACGAAUUCGUACCAUAGAGAGGUCUAUCACGCUCACCGAGAUCGGAAGAGCACACGU	7.59
target 2 MT 5'PFS AUG 3'PFS AAU (mixed) RNA 1: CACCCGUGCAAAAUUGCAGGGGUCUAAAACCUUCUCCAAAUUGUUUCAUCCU RNA 2: GGGAAUGGAUCCACAUCUACGAAUUCAUGAGGAUGAAACAAUUUGGAGAAGAAUAGAUCGGAAGAGCACACGU	8.12
target 3 G4C,U22G (mixed) RNA 1: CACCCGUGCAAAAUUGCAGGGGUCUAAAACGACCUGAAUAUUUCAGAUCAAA RNA 2: GGGAAUGGAUCCACAUCUACGAAUUCGUUGUUGAUCUGAAAUAUUCACGUCUGCAGAUCGGAAGAGCACACGU	7.07
